# Measured Target: Disintegrin and metalloproteinase domain-containing protein 17 (Homo sapiens, UniProt P78536)
# Sequence (P78536 whole entry, the tested form may be a part): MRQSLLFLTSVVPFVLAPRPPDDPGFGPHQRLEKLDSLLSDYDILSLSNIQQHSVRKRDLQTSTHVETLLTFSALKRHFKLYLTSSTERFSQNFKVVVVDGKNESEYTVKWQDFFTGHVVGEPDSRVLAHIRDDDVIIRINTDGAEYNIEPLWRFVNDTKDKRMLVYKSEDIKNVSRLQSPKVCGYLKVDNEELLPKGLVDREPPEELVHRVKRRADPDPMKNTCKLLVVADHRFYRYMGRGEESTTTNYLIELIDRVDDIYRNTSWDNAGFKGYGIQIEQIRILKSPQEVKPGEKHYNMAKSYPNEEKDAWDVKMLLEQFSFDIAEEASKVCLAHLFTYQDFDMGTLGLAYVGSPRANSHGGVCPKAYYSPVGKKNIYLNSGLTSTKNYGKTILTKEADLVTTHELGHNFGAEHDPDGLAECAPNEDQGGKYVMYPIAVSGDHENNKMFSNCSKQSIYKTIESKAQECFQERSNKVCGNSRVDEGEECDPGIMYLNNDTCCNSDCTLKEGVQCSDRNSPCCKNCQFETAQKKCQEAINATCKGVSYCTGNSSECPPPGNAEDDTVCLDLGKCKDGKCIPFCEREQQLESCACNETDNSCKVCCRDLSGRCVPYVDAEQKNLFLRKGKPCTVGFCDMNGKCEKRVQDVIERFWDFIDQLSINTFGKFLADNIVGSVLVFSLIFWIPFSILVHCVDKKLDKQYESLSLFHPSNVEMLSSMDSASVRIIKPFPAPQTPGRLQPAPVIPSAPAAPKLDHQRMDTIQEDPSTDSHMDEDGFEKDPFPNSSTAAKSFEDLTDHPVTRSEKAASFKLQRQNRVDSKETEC
# Measurement Protocol: Inhibition of TACE
Assay Readout: Ki (nM)

Measured Ki, COc1ccc2c(c1)C(=O)N(C[C@@]1(C#Cc3ccc(C(N)=O)cc3)NC(=O)NC1=O)C2 : 0.56

Lab note: measured Ki of COc1ccc2c(c1)C(=O)N(C[C@@]1(C#Cc3cccc(C)c3)NC(=O)NC1=O)C2 was 0.72

Data point: COc1ccc2c(c1)C(=O)N(C[C@@]1(C#Cc3ccccc3F)NC(=O)NC1=O)C2 ; Ki = 0.13

For record COc1ccc2c(c1)C(=O)N(C[C@@]1(C#Cc3ccccc3C)NC(=O)NC1=O)C2 the listed Ki is 2

Record COc1ccc2c(c1)C(=O)N(C[C@@]1(C#Cc3ccc(-c4ncccc4O)cc3)NC(=O)NC1=O)C2 , field Ki: 0.07

Input COc1ccc2c(c1)C(=O)N(C[C@@]1(C#Cc3cccc(C(C)C)c3)NC(=O)NC1=O)C2 . Output Ki: 0.5

[1] COc1ccc2c(c1)C(=O)N(C[C@@]1(C#Cc3ccccc3C(N)=O)NC(=O)NC1=O)C2
[2] COc1ccc2c(c1)C(=O)N(C[C@@]1(C#Cc3ccc4[nH]cnc4c3)NC(=O)NC1=O)C2
Compare 1 and 2 by numeric Ki and name the larger one. State the label of the item chosen.
1
(1: 2.78 nM, 2: 0.6 nM)

[I] COc1ccc2c(c1)C(=O)N(C[C@@]1(C#Cc3ccc(/C(=N/O)N4CCN(C)CC4)cc3)NC(=O)NC1=O)C2
[II] COc1ccc2c(c1)C(=O)N(C[C@@]1(C#Cc3ccc4cnn(C)c4c3)NC(=O)NC1=O)C2
Endpoint returns the identifier whose Ki is numerically larger, either I or II . Return value: the label identifying the chosen record.
II

[A] COc1ccc2c(c1)C(=O)N(C[C@@]1(C#Cc3ccc(CC4CCN(C)CC4)nc3)NC(=O)NC1=O)C2
[B] CCN1CCN(Cc2ccc(C#C[C@]3(CN4Cc5ccc(OC)cc5C4=O)NC(=O)NC3=O)cc2)CC1
Between A and B , which one shows the smaller Ki number? Use the label to indicate which entry you chose.
B

[1] COc1ccc2c(c1)C(=O)N(C[C@@]1(C#Cc3cccnc3)NC(=O)NC1=O)C2
[2] COc1ccc2c(c1)C(=O)N(C[C@@]1(C#Cc3ccc4[nH]ccc4c3)NC(=O)NC1=O)C2
Kindly compare 1 with 2 and tell me which has the lower Ki figure. # answer = label of selected item
2

[I] COc1ccc2c(c1)C(=O)N(C[C@@]1(C#Cc3ccc4cc[nH]c4c3)NC(=O)NC1=O)C2
[II] CCN1CCN(c2ccc(O)c(-c3ccc(C#C[C@]4(CN5Cc6ccc(OC)cc6C5=O)NC(=O)NC4=O)cc3F)n2)CC1
[III] COc1ccc2c(c1)C(=O)N(C[C@@]1(C#Cc3ccc(C(C)=O)cc3)NC(=O)NC1=O)C2
[IV] COc1ccc2c(c1)C(=O)N(C[C@@]1(C#Cc3cccc(C#N)c3)NC(=O)NC1=O)C2
Exam item: list the entries in increasing order of Ki. Field: ranking. Enter the labels in the order requested.
IV, II, I, III

[A] COc1ccc2c(c1)C(=O)N(C[C@@]1(C#Cc3ccccc3)NC(=O)NC1=O)C2
[B] COc1ccc2c(c1)C(=O)N(C[C@@]1(C#Cc3ccc(C(=O)NC4CC4)cc3)NC(=O)NC1=O)C2
Could you point out whether the larger Ki belongs to A or to B ? Your answer should be the label of the entry you select.
B
(B: 2.55 nM, A: 0.14 nM)

[1] COc1ccc2c(c1)C(=O)N(C[C@@]1(C#Cc3ccc(F)cc3)NC(=O)NC1=O)C2
[2] CCN1CCN(/C(=N\O)c2ccc(C#C[C@]3(CN4Cc5ccc(OC)cc5C4=O)NC(=O)NC3=O)cn2)CC1
When the recorded Ki values are compared, which is smaller: that of 1 or that of 2 ? Mark your selection by writing its label.
2
(2: 0.18 nM, 1: 0.26 nM)

Origin of the recorded values: ChEMBL document CHEMBL1287807
